FYI, the data here is from ChEMBL document CHEMBL1155527.

Assay: AUC (last) in Long Evans rat at 3 mg/kg, po
Assay type: ADME, organism-based
Parameters: time 0 - last, dose 3 mg/kg, route oral
Details: plasma
propertyName: AUC(0-t)
Please format your answer as a value with the unit trailing.

The recorded AUC(0-t) for entry O=C(NCCCCN1CCCCC1)Nc1ccc(-c2ccc(F)cc2)nc1 equals 318 ng·h/mL

----------
Molecular target: Neuronal acetylcholine receptor; alpha4/beta2 (Homo sapiens, UniProt P17787+P43681)
Sequence (P17787 whole entry): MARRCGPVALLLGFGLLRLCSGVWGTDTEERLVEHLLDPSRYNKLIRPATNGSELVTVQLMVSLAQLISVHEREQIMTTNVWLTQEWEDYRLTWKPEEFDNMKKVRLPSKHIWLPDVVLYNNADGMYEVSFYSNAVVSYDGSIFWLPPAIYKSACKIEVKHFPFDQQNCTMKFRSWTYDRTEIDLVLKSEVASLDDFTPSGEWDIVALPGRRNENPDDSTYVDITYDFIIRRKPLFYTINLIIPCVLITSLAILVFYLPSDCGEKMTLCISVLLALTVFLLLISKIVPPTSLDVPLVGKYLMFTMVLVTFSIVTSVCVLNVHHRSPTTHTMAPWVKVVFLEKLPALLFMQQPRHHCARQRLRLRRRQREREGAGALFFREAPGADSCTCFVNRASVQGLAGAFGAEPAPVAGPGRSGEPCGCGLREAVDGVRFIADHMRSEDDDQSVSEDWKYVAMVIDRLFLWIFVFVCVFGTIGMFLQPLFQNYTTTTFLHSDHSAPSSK
Sequence (P43681 whole entry): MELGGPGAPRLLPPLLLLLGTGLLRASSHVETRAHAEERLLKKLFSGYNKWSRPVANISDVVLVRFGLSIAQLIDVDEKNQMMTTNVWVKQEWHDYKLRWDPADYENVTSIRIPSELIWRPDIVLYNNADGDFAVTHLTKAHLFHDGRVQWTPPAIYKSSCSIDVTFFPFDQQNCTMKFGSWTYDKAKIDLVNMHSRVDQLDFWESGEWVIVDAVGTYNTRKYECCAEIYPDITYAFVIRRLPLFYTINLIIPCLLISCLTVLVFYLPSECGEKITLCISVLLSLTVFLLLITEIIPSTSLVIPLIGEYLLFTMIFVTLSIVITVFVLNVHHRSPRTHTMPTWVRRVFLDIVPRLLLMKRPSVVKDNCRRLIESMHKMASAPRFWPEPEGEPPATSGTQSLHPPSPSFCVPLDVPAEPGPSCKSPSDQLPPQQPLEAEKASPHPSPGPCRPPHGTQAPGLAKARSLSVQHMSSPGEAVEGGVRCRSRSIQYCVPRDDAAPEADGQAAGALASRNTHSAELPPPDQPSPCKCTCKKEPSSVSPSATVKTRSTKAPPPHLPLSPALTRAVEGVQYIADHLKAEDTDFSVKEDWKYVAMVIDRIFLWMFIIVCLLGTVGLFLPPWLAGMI
Assay: Agonist activity at alpha4beta2 nAChR
pIC50: −log10 of the molar value.
propertyName: pIC50

The recorded pIC50 for entry O=C(NCCCCN1CCCCC1)Nc1ccc(-c2ccc(F)cc2)nc1 equals < 4.52

----------
Test: AUC (0 to infinity) in brain of Han Wistar rat at 2 mg/kg, po
Type: ADME, organism-based
Parameters: time infinity, dose 2 mg/kg, route oral
propertyName: AUC(0-inf) (ng·h/mL)
Expressed in ng·h/mL, but write only the number.

The recorded AUC(0-inf) for entry O=C(NCCCCN1CCCCC1)Nc1ccc(-c2ccc(F)cc2)nc1 equals 215

----------
Assay: Tmax in Long Evans rat at 3 mg/kg, po
Format: ADME, organism-based
Set-up: dose 3 mg/kg, route oral
Settings: in vivo
propertyName: Tmax (h)
Expressed in h, but write only the number.

The recorded Tmax for entry O=C(NCCCCN1CCCCC1)Nc1ccc(-c2ccc(F)cc2)nc1 equals 5.3

----------
Target: 5-hydroxytryptamine receptor 3A (Homo sapiens, UniProt P46098)
Sequence (P46098 whole entry): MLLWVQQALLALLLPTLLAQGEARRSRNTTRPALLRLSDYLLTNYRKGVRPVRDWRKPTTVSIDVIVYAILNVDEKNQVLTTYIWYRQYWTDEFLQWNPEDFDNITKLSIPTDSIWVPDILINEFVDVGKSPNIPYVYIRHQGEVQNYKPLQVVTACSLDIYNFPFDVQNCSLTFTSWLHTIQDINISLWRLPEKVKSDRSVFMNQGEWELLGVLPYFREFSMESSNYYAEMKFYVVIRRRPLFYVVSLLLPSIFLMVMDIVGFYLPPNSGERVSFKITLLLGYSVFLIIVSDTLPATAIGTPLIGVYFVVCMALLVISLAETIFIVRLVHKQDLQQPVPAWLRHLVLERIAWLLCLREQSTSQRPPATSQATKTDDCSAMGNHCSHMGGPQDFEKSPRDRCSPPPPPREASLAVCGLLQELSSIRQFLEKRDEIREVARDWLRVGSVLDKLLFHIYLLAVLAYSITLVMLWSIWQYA
Test: Antagonist activity at human 5HT3A receptor expressed in HEK293 cells by FLIPR assay
pIC50: −log10 of the molar value.
Examples of compounds with documented pIC50 follow.

compoundStructure	measuredOn	pIC50
O=C(NCCCCN1CCCCC1)Nc1ccc(-c2ccccn2)nc1	5-hydroxytryptamine receptor 3A (Homo sapiens, UniProt P46098)	< 4.52
O=C(NCCCCN1CCCCC1)Nc1ccc(-c2ccccc2)cc1	5-hydroxytryptamine receptor 3A (Homo sapiens, UniProt P46098)	5.10
COc1ccccc1-c1ccc(NC(=O)NCCCCN2CCCCC2)cc1	5-hydroxytryptamine receptor 3A (Homo sapiens, UniProt P46098)	5.11

The recorded pIC50 for entry O=C(NCCCCN1CCCCC1)Nc1ccc(-c2ccc(F)cc2)nc1 equals < 4.52

The recorded pIC50 for entry O=C(NCCCCN1CCCCC1)Nc1ccc(-c2ccccc2F)nc1 equals < 4.52

The recorded pIC50 for entry O=C(NCCCCN1CCCCC1)Nc1ccc(-c2ccc(F)cc2)cc1 equals 5.24

----------
Experiment: Solubility in ammonium acetate buffer at pH 7.4 by pseudothermodynamic equilibrium assay
Type: physicochemical
propertyName: solubility thermodynamic (µM)
Expressed in µM, but write only the number.

Worked cases, solubility thermodynamic given:
compoundStructure	solubility thermodynamic (µM)
O=C(NCCCCN1CCCCC1)Nc1ccc(-c2ccccc2F)cc1	95
O=C(NCCCCN1CCCCC1)Nc1ccc(-c2ccc(F)cc2)cc1	20
O=C(NCCCCN1CCCCC1)Nc1ccc(-c2ccccc2)cc1	108

The recorded solubility thermodynamic for entry O=C(NCCCCN1CCCCC1)Nc1ccc(-c2ccc(F)cc2)nc1 equals 121

The recorded solubility thermodynamic for entry O=C(NCCCCN1CCCCC1)Nc1ccc(-c2ccccc2)nc1 equals 193

The recorded solubility thermodynamic for entry O=C(NCCCCN1CCCCC1)Nc1ccc(-c2ccccc2F)nc1 equals 196

The recorded solubility thermodynamic for entry O=C(NCCCCN1CCCCC1)Nc1ccc(-c2ccccn2)nc1 equals 171

The recorded solubility thermodynamic for entry O=C(NCCCCN1CCCCC1)Nc1ccc(-c2ccc(F)nc2)nc1 equals 205

The recorded solubility thermodynamic for entry COc1ccccc1-c1ccc(NC(=O)NCCCCN2CCCCC2)cc1 equals 114

The recorded solubility thermodynamic for entry O=C(NCCCCN1CCCCC1)Nc1ccc(-c2ccc(F)nc2)cc1 equals 158

The recorded solubility thermodynamic for entry O=C(NCCCCN1CCCCC1)Nc1ccc(-c2ccccn2)cc1 equals 153

The recorded solubility thermodynamic for entry COc1ccccc1-c1ccc(NC(=O)NCCCCN2CCCCC2)cn1 equals 174

----------
Target: Neuronal acetylcholine receptor subunit alpha-7 (Rattus norvegicus)
Sequence (Q05941 whole entry): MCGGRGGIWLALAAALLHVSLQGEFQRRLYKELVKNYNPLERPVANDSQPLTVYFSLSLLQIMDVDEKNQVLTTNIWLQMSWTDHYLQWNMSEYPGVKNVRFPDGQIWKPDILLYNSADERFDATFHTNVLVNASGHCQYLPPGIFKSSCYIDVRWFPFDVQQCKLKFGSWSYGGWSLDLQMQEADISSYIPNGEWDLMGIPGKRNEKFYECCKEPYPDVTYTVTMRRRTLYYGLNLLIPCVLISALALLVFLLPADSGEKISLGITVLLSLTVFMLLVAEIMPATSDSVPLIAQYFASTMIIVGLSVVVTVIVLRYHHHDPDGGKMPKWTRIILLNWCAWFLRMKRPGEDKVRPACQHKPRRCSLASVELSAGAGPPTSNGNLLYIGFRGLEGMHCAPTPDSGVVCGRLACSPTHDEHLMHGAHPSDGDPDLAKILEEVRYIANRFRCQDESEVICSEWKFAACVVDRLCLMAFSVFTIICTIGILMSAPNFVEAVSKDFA
Experiment: Agonist activity at rat alpha7 nAChR expressed in rat GH4C1 cells assessed as calcium flux by FLIPR
propertyName: EC50

compoundStructure	EC50
O=C(NCCCCN1CCCCC1)Nc1ccc(-c2ccccn2)cc1	130 nM
O=C(NCCCCN1CCCCC1)Nc1ccc(-c2ccccn2)nc1	390 nM
O=C(NCCCCN1CCCCC1)Nc1ccc(-c2ccccc2)nc1	120 nM
O=C(NCCCCN1CCCCC1)Nc1ccc(-c2ccccc2F)nc1	150 nM

The recorded EC50 for entry O=C(NCCCCN1CCCCC1)Nc1ccc(-c2ccccc2F)cc1 equals 130 nM

The recorded EC50 for entry O=C(NCCCCN1CCCCC1)Nc1ccc(-c2cccnc2)cc1 equals 120 nM

----------
Assay: Half life in Han Wistar rat at 10 mg/kg, po and 2 mg/kg, iv
Type: ADME, organism-based
Settings: in vivo
propertyName: half-life (h)
Expressed in h, but write only the number.

The recorded half-life for entry O=C(NCCCCN1CCCCC1)Nc1ccc(-c2ccc(F)cc2)nc1 equals 3.5

----------
Biological target: CYP2C9 (Homo sapiens)
Sequence (P11712 whole entry): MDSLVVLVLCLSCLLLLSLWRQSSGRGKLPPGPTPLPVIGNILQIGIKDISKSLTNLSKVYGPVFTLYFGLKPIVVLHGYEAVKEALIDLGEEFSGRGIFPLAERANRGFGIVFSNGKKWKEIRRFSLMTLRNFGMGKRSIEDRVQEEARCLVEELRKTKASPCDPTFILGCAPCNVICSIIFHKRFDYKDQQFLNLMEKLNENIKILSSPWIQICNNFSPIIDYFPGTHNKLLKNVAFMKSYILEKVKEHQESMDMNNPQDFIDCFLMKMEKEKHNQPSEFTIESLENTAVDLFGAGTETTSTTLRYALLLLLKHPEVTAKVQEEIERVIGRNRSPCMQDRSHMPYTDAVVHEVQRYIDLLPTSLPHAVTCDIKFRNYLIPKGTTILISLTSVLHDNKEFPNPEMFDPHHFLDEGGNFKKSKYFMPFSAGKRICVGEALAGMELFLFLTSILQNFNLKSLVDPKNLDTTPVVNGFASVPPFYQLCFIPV
Test: Inhibition of CYP2C9 at 3 uM by Gentest method
Assay type: ADME
# if value of inhibition at 3 µM reaches -10%, tag true; if it stays below, tag false

Take a look at these entries with their results.
compoundStructure	measuredOn	discreteLabel
O=C(NCCCCN1CCCCC1)Nc1ccc(-c2ccccc2)cc1	CYP2C9 (Homo sapiens)	true
O=C(NCCCCN1CCCCC1)Nc1ccc(-c2ccccc2)nc1	CYP2C9 (Homo sapiens)	true
O=C(NCCCCN1CCCCC1)Nc1ccc(-c2ccc(F)cc2)nc1	CYP2C9 (Homo sapiens)	false
O=C(NCCCCN1CCCCC1)Nc1ccc(-c2ccccn2)nc1	CYP2C9 (Homo sapiens)	true
O=C(NCCCCN1CCCCC1)Nc1ccc(-c2ccccc2F)cc1	CYP2C9 (Homo sapiens)	true
COc1ccccc1-c1ccc(NC(=O)NCCCCN2CCCCC2)cc1	CYP2C9 (Homo sapiens)	true
COc1ccccc1-c1ccc(NC(=O)NCCCCN2CCCCC2)cn1	CYP2C9 (Homo sapiens)	true
O=C(NCCCCN1CCCCC1)Nc1ccc(-c2ccc(F)nc2)cc1	CYP2C9 (Homo sapiens)	false

(Q) Decide: is the reported value of inhibition at 3 µM for O=C(NCCCCN1CCCCC1)Nc1ccc(-c2ccc(F)cc2)cc1 equal to or greater than -10%?
(A) false

(Q) Decide: is the reported value of inhibition at 3 µM for O=C(NCCCCN1CCCCC1)Nc1ccc(-c2ccccn2)cc1 equal to or greater than -10%?
(A) true

----------
System: CYP3A4
Experiment: Metabolic stability assessed as compound remaining after 1 hr in presence of human CYP3A4
Format: ADME
Conditions: read-out: Stability
Examples of compounds with documented remaining at 1 h follow.
Expressed in %, but write only the number.

Worked cases, remaining at 1 h given:
compoundStructure	measuredOn	propertyName	value
COc1ccccc1-c1ccc(NC(=O)NCCCCN2CCCCC2)cn1	CYP3A4	remaining at 1 h	88
O=C(NCCCCN1CCCCC1)Nc1ccc(-c2ccc(F)cc2)nc1	CYP3A4	remaining at 1 h	75
O=C(NCCCCN1CCCCC1)Nc1ccc(-c2ccccn2)cc1	CYP3A4	remaining at 1 h	97
O=C(NCCCCN1CCCCC1)Nc1ccc(-c2ccccn2)nc1	CYP3A4	remaining at 1 h	100
O=C(NCCCCN1CCCCC1)Nc1ccc(-c2ccccc2F)nc1	CYP3A4	remaining at 1 h	100
O=C(NCCCCN1CCCCC1)Nc1ccc(-c2ccc(F)nc2)nc1	CYP3A4	remaining at 1 h	100

The recorded remaining at 1 h for entry O=C(NCCCCN1CCCCC1)Nc1ccc(-c2ccccc2)nc1 equals 100

The recorded remaining at 1 h for entry O=C(NCCCCN1CCCCC1)Nc1ccc(-c2ccccc2F)cc1 equals 88

The recorded remaining at 1 h for entry O=C(NCCCCN1CCCCC1)Nc1ccc(-c2ccccc2)cc1 equals 100

The recorded remaining at 1 h for entry O=C(NCCCCN1CCCCC1)Nc1ccc(-c2ccc(F)cc2)cc1 equals 100

The recorded remaining at 1 h for entry COc1ccccc1-c1ccc(NC(=O)NCCCCN2CCCCC2)cc1 equals 100

The recorded remaining at 1 h for entry O=C(NCCCCN1CCCCC1)Nc1ccc(-c2ccc(F)nc2)cc1 equals 100

----------
Examples of compounds with documented Ratio EC50 follow.
Assay: Selectivity ratio of EC50 for human alpha3 nAChR to EC50 for rat alpha7 nAChR
Just the number, please, no unit after it.

compoundStructure	Ratio EC50
COc1ccccc1-c1ccc(NC(=O)NCCCCN2CCCCC2)cc1	1.1
O=C(NCCCCN1CCCCC1)Nc1ccc(-c2ccc(F)nc2)cc1	1.2
O=C(NCCCCN1CCCCC1)Nc1ccc(-c2ccc(F)cc2)cc1	1.7
O=C(NCCCCN1CCCCC1)Nc1ccc(-c2ccccn2)cc1	5
COc1ccccc1-c1ccc(NC(=O)NCCCCN2CCCCC2)cn1	3.9

The recorded Ratio EC50 for entry O=C(NCCCCN1CCCCC1)Nc1ccc(-c2ccccc2)cc1 equals 2.8

The recorded Ratio EC50 for entry O=C(NCCCCN1CCCCC1)Nc1ccc(-c2ccccn2)nc1 equals 9.88

The recorded Ratio EC50 for entry O=C(NCCCCN1CCCCC1)Nc1ccc(-c2ccccc2F)cc1 equals 1.2

The recorded Ratio EC50 for entry O=C(NCCCCN1CCCCC1)Nc1ccc(-c2ccccc2)nc1 equals 10.1

The recorded Ratio EC50 for entry O=C(NCCCCN1CCCCC1)Nc1ccc(-c2ccccc2F)nc1 equals 5.6
